tgt: ERα (Homo sapiens)
Construct: host or cells: MCF7
run.description: Estrogen receptor degradation activity: breast cancer cell ERα in cell western assay (MCF7 cells)
Format: cell-based
conditions: 4 hours post compound addition, concentration which degrades 50% of the estrogen receptor, read-out: Degradation IC50
Experimental: Test: Estrogen Receptor Degradation Activity Said test involves measuring the in vitro degradation activity of the compounds of the Table 1a. The measurements of the degradation activities were made using a breast cancer cell ERα in cell western assay as described hereunder. […] Integrated intensities in the green fluorescence and red fluorescence were measured to determine the levels of ERα and DNA respectively. […]
reported.metric: DC50 (nM)

[
  {
    "molecule": "O=C(O)c1ccc2c(c1)CCCC(c1cccc(CC(F)(F)F)c1)=C2c1ccc(CC2CN(CCCF)C2)cc1",
    "DC50, nM": 0.5
  },
  {
    "molecule": "COc1c(F)cccc1C1=C(c2ccc(CC3CN(CCCF)C3)cc2)c2ccc(C(=O)O)cc2CCC1",
    "DC50, nM": 0.6
  },
  {
    "molecule": "Cc1cc(C2=C(c3ccc(CC4CN(CCCF)C4)cc3)c3ccc(C(=O)O)cc3CCC2)cn(C)c1=O",
    "DC50, nM": 88.7
  }
]

(A) NC(c1ccc(C2=C(c3ccc(Cl)cc3Cl)CCCc3cc(C(=O)O)ccc32)cc1)C1CN(CCCF)C1 (single isomer, unassigned; isomer 1) [Example 243]
(B) Cc1cc(Cl)ccc1C1=C(c2ccc(CC3CN(CCCF)C3)cc2)c2ccc(C(=O)O)cc2OCC1
Prompt: Could you check which of A and B has a smaller value for DC50? Your answer should be the label attached to the chosen record.
Completion: B

---

tgt: ERα (Homo sapiens, UniProt P03372)
Construct: host or cells: MCF7
run.description: Estrogen receptor degradation activity: breast cancer cell ERα in cell western assay (MCF7 cells)
Type: cell-based
conditions: 0.3 μM, 4 hours, relative to fulvestrant 0.1 μM positive control
reported.metric: % Degradation At 0.3 μM (%)

[
  {
    "mol": "Cl.O=C(O)c1ccc2c(c1)CCCC(c1cccc(F)c1Cl)=C2c1ccc(CC2CN(CCCF)C2)cc1",
    "% Degradation At 0.3 μM [%]": 92
  },
  {
    "mol": "Cc1cccc(C2=C(c3ccc(CC4CN(CCCF)C4)cc3)c3ccc(C(=O)O)cc3CCC2)c1C(F)(F)F.Cl",
    "% Degradation At 0.3 μM [%]": 90
  },
  {
    "mol": "O=C(O)c1ccc2c(c1)CCCC(c1ccc(Cl)cc1Cl)=C2c1ccc(CC2CN(CCCF)C2)cn1",
    "% Degradation At 0.3 μM [%]": 89
  },
  {
    "mol": "O=C(O)c1ccc2c(c1)CCCC(c1ccccc1C(F)(F)F)=C2c1ccc(CC2(F)CN(CCCF)C2)cc1",
    "% Degradation At 0.3 μM [%]": 81
  },
  {
    "mol": "O=C(O)c1ccc2c(c1)CCCC(c1ccc(Cl)cc1C(F)(F)F)=C2c1ccc(CC2(F)CN(CCCF)C2)cc1",
    "% Degradation At 0.3 μM [%]": 88
  },
  {
    "mol": "O=C(O)c1ccc2c(c1)CCCC(c1cccc(Cl)c1Cl)=C2c1ccc(CC2CN(CCCF)C2)cc1",
    "% Degradation At 0.3 μM [%]": 91
  },
  {
    "mol": "O=C(O)c1ccc2c(c1)CCCC(c1ccc(Cl)cc1Cl)=C2c1ccc(CC2(F)CN(CCCF)C2)cc1",
    "% Degradation At 0.3 μM [%]": 88
  }
]

---

tgt: ERα (Homo sapiens, UniProt P03372)
Construct: host or cells: MCF7
Sequence (P03372 1-595): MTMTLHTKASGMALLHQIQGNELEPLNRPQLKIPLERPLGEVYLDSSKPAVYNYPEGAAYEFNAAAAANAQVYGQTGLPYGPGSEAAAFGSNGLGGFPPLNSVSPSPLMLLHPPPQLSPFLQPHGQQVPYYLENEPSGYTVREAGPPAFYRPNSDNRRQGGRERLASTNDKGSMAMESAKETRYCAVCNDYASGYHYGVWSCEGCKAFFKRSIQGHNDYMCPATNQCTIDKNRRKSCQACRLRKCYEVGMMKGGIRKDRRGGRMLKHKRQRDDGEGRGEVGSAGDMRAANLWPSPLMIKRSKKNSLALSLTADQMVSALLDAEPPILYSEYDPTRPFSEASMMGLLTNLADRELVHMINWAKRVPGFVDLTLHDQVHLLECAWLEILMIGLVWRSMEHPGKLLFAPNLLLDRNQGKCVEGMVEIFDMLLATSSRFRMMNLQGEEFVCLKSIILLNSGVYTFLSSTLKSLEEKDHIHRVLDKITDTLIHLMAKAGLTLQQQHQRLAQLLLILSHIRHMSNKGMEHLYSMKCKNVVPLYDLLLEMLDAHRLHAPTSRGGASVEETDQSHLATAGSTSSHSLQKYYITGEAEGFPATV
run.description: Estrogen receptor degradation activity: breast cancer cell ERα in cell western assay (MCF7 cells)
Format: cell-based
conditions: 0.3 μM, 4 hours, relative to fulvestrant 0.1 μM positive control
reported.metric: % Degradation At 0.3 μM (%)

[
  {
    "molecule": "O=C(O)c1ccc2c(c1)CCCC(c1cccc(CO)c1)=C2c1ccc(CC2CN(CCCF)C2)cc1 [Example 320]",
    "% Degradation At 0.3 μM, %": 80
  },
  {
    "molecule": "Cl.O=C(O)c1ccc2c(c1)CCCC(C1CCCC1)=C2c1ccc(CC2CN(CCCF)C2)cc1 [Example 6]",
    "% Degradation At 0.3 μM, %": 82
  },
  {
    "molecule": "CCC1CCc2cc(C(=O)O)ccc2C(c2ccc(CC3CN(CCCF)C3)cc2)=C1c1ccc(Cl)cc1 (single isomer, unassigned) [Example 330]",
    "% Degradation At 0.3 μM, %": 91
  },
  {
    "molecule": "CC(C)C1CCc2cc(C(=O)O)ccc2C(c2ccc(CC3CN(CCCF)C3)cc2)=C1c1ccc(Cl)cc1Cl (single isomer, unassigned) [Example 322]",
    "% Degradation At 0.3 μM, %": 87
  },
  {
    "molecule": "Cl.O=C(O)c1ccc2c(c1)OCCC(c1ccccc1Cl)=C2c1ccc(CC2CN(CCCF)C2)cc1 [Example 49]",
    "% Degradation At 0.3 μM, %": 82
  },
  {
    "molecule": "O=C(O)c1ccc2c(c1)CCCC(c1ccc(F)c(F)c1)=C2c1ccc(CC2CN(CCCF)C2)cc1 [Example 45]",
    "% Degradation At 0.3 μM, %": 86
  },
  {
    "molecule": "O=C(O)c1ccc2c(c1)SCC(c1ccc(F)cc1F)=C2c1ccc(CC2CN(CCCF)C2)cc1 [Example 314]",
    "% Degradation At 0.3 μM, %": 87
  }
]

---

tgt: ERα (Homo sapiens, UniProt P03372)
Construct: host or cells: MCF7
run.description: Estrogen receptor degradation activity: breast cancer cell ERα in cell western assay (MCF7 cells)
Format: cell-based
conditions: 0.3 μM, 4 hours, relative to fulvestrant 0.1 μM positive control
reported.metric: % Degradation At 0.3 μM (%)

[
  {
    "mol": "Cc1cc(C(F)(F)F)ccc1C1=C(c2ccc(CC3CN(CCCF)C3)cc2)c2ccc(C(=O)O)cc2CCC1",
    "% Degradation At 0.3 μM / %": 90
  },
  {
    "mol": "O=C(O)c1ccc2c(c1)CCCC(c1ccc(Cl)cc1Cl)=C2c1ccc(CC2CN(CCCF)C2)c(F)c1",
    "% Degradation At 0.3 μM / %": 93
  },
  {
    "mol": "Cc1ccc(C2=C(c3ccc(CC4CN(CCCF)C4)cc3)c3ccc(C(=O)O)cc3CCC2)c(C)c1.Cl",
    "% Degradation At 0.3 μM / %": 92
  },
  {
    "mol": "Cc1c(C2=C(c3ccc(CC4CN(CCC(F)F)C4)cc3)c3ccc(C(=O)O)cc3CCC2)ccc(Cl)c1F",
    "% Degradation At 0.3 μM / %": 93
  }
]

---

tgt: ERα (Homo sapiens, UniProt P03372)
Construct: host or cells: MCF7
Sequence (P03372 1-595): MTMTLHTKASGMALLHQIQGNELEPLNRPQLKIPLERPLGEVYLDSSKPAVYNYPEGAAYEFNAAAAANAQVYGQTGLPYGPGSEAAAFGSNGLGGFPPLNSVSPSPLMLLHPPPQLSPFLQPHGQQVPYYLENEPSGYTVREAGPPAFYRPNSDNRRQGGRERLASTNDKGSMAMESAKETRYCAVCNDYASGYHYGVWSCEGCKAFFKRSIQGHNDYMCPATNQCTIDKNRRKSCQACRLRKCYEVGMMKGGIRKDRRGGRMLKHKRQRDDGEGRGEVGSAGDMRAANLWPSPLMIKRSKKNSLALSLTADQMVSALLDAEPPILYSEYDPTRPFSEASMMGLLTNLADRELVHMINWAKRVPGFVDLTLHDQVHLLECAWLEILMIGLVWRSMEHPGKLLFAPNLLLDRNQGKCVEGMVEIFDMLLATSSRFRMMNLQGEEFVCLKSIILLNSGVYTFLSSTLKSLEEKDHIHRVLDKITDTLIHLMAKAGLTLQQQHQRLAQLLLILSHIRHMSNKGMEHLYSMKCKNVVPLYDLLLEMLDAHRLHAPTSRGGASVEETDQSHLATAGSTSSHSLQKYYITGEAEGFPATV
run.description: Estrogen receptor degradation activity: breast cancer cell ERα in cell western assay (MCF7 cells)
Format: cell-based
conditions: 0.3 μM, 4 hours, relative to fulvestrant 0.1 μM positive control
reported.metric: % Degradation At 0.3 μM (%)

[
  {
    "compound": "CC(O)(c1ccc(C2=C(c3ccc(Cl)cc3Cl)CCCc3cc(C(=O)O)ccc32)cc1)C1CN(CCCF)C1.Cl (single isomer, unassigned; isomer 1) [Example 235]",
    "tgt": "ERα (Homo sapiens, UniProt P03372)",
    "% Degradation At 0.3 μM (%)": 62
  },
  {
    "compound": "O=C(O)c1ccc2c(c1)CCCC(C1CCOCC1)=C2c1ccc(CC2CN(CCCF)C2)cc1",
    "tgt": "ERα (Homo sapiens, UniProt P03372)",
    "% Degradation At 0.3 μM (%)": 83
  },
  {
    "compound": "CC1CCc2cc(C(=O)O)ccc2C(c2ccc(CC3CN(CCCF)C3)cc2)=C1c1ccc(F)c(F)c1 (racemic)",
    "tgt": "ERα (Homo sapiens, UniProt P03372)",
    "% Degradation At 0.3 μM (%)": 91
  },
  {
    "compound": "Cc1cc2c(cc1C(=O)O)CCCC(c1ccc(Cl)cc1Cl)=C2c1ccc(CC2CN(CCCF)C2)cc1",
    "tgt": "ERα (Homo sapiens, UniProt P03372)",
    "% Degradation At 0.3 μM (%)": 90
  },
  {
    "compound": "O=C(O)c1ccc2c(c1)CCCC(c1cc(F)c(F)c(F)c1)=C2c1ccc(CC2CN(CCCF)C2)cc1",
    "tgt": "ERα (Homo sapiens, UniProt P03372)",
    "% Degradation At 0.3 μM (%)": 89
  },
  {
    "compound": "O=C(O)c1ccc2c(c1)CCCC(c1ncc(Cl)cc1F)=C2c1ccc(CC2CN(CCCF)C2)cc1",
    "tgt": "ERα (Homo sapiens, UniProt P03372)",
    "% Degradation At 0.3 μM (%)": 92
  },
  {
    "compound": "O=C(O)c1ccc2c(c1)CCCC(c1cccc(C(F)(F)F)c1F)=C2c1ccc(CC2CN(CCC(F)F)C2)cc1",
    "tgt": "ERα (Homo sapiens, UniProt P03372)",
    "% Degradation At 0.3 μM (%)": 81
  }
]
